Target: T1, CD25 protein (Sino Biological, 10165-H08H) (UniProt P01589 22-213)
T1 construct: Bought recombinant protein; It speaks elsewhere of human CD25; also called antigen CD25; IL-2Rα
T1 sequence (looked up): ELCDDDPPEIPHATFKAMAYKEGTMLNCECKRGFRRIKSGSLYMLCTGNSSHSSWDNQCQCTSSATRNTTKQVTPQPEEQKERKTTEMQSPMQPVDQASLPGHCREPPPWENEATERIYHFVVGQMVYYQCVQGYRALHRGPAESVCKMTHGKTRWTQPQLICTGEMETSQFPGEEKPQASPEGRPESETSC
Assay: SPR (BIAcore 8K); antibody captured by anti-human IgG Fc, CD25 protein as analyte, 1:1 model
MEASURED QUANTITY: pKd
Lab note — pKd values are minus log10 of concentrations in M.

Observe how each entry below is paired with its result.
CD25Q11-BA415-IgG1 (antibody, V domains shown, IgG1 expressed in HEK293) VH: QVQLVQSGTEVKKPGESLKISCEGVGYSFTTYWIGWVRQMPGKGLEWMGIIYPGDSITRYSPSFQGQVTISADKSINTAYLQWSSLMASDTAMYYCVRGPHWGDYWGQGTLVTVSS VL: DIQMTQSPSTLSASVGDRVTITCRASQSISTWLAWYQQKPGKAPKLLIYKASSLESGVPSRFSGSGSGTEFTLTISSLQPDDFAAYYCQQYSSYSWTFGQGTKVEIKR | 9.21
CD25Q3-BA125-IgG1 (antibody, V domains shown, IgG1; also called CD25Q2-BA125) VH: EVQLVQSGAEVKKPGESLKISCKGSGYSFANYWIVWVRQMPGKGLEWMGIIYPDDSETRYSPSFQGQVTFSADKSISTAYLQWSSLKASDTAMYYCTRGPYYSDYWGQGTLVTVSS VL: DIQMTQSPSTLSASVGDRVTITCRASQIISGYLAWYQQKPGKAPKLLIYKASSLESGVPSRFSGSGSGAEFTLTISSLQPDDFATYYCQQYNSYTWTFGQGTKVEIKR | 9.37
CD25-MA251-IgG1 (antibody, V domains shown, also called CD25Q-MA251; control antibody) VH: QVQLKESGPGLVAPSQSLSITCTVSGFSLTSYGIQWVRQPPGKGLEWLGVIWAGGSTNYNSALMSRLSISKDNSKSQVFLKMNSLQTDDTAMYYCARAYGYDGSWLAYWGQGTLVTVSS VL: QIVLSQSPAILSASPGEKVTMTCRASSSVSYMHWYQQKPGSSPKPWIFATSNLASGVPARFSGSGSGTSYSLTINRVEAEDADTYYCQQWSSNPPTFGGGTKLEIKR | 8.28

Please indicate pKd recorded for CD25Q14-BA443-IgG1 (antibody, V domains shown, IgG1 expressed in HEK293) VH: EVQLVQSGAEVKKPGESLKISCKGSGYSFSNYWIGWVRQMPGKGLEWMGIISPGDSTTKYSPSFQGQVTFSADKSTSTAYLQWSSLQASDTAMYYCVRGPYYLDYWGQGTLVTVSS VL: DIQMTQSPSTLSASVGDRVTITCRASQSVSGYLAWYQQKPGKAPKLLIYKTSSLESGVPSRFSGSGSGTDFTLTISSLQAEDVAVYYCQQYYSTPWTFGQGTKVEIKR
8.83
